TARGET_ENTITY: UniProt Q12809
pIC50: −log10 of the molar value.
METRIC: pIC50

Form entry - test system: UniProt Q12809; read-out: pIC50; molecule: NC(=O)c1ccc(NCC#Cc2cnc(N3CCC4(CC3)Cc3ccccc3[C@H]4N)c(CO)n2)cc1
< 4.70

====

ASSAY_SUMMARY: In vitro metabolic stability in liver microsomes, mouse
Type: in vitro ADME
METRIC: CLint (µL/min/mg protein) mouse
Give the quantity in µL/min/mg protein, number only.

- ITEM_SMILES: "NC(=O)c1ccc(NCC#Cc2cnc(N3CCC4(CC3)Cc3ccccc3[C@H]4N)c(CO)n2)cc1"
  CLint (µL/min/mg protein) mouse: 15.2
- ITEM_SMILES: "NC(=O)c1ccc(OCC#Cc2cnc(N3CCC4(CC3)Cc3ccccc3[C@H]4N)c(CO)n2)cc1F"
  CLint (µL/min/mg protein) mouse: 3.1

Bench note: what CLint (µL/min/mg protein) mouse did N[C@@H]1c2ccccc2CC12CCN(c1ncc(C#CCOc3ccc(S(N)(=O)=O)cc3)nc1CO)CC2 show?
10.6

Bench note: what CLint (µL/min/mg protein) mouse did N[C@@H]1c2ccccc2CC12CCN(c1ncc(C#CCNC(=O)c3ccccc3)nc1CO)CC2 show?
6.3

Bench note: what CLint (µL/min/mg protein) mouse did N[C@@H]1c2ccccc2CC12CCN(c1ncc(C#CCOc3ccc4c(c3)CNC4=O)nc1CO)CC2 show?
16.7

====

TARGET_ENTITY: hERG potassium channel (Homo sapiens (Human), UniProt Q12809)
Sequence (Q12809 whole entry): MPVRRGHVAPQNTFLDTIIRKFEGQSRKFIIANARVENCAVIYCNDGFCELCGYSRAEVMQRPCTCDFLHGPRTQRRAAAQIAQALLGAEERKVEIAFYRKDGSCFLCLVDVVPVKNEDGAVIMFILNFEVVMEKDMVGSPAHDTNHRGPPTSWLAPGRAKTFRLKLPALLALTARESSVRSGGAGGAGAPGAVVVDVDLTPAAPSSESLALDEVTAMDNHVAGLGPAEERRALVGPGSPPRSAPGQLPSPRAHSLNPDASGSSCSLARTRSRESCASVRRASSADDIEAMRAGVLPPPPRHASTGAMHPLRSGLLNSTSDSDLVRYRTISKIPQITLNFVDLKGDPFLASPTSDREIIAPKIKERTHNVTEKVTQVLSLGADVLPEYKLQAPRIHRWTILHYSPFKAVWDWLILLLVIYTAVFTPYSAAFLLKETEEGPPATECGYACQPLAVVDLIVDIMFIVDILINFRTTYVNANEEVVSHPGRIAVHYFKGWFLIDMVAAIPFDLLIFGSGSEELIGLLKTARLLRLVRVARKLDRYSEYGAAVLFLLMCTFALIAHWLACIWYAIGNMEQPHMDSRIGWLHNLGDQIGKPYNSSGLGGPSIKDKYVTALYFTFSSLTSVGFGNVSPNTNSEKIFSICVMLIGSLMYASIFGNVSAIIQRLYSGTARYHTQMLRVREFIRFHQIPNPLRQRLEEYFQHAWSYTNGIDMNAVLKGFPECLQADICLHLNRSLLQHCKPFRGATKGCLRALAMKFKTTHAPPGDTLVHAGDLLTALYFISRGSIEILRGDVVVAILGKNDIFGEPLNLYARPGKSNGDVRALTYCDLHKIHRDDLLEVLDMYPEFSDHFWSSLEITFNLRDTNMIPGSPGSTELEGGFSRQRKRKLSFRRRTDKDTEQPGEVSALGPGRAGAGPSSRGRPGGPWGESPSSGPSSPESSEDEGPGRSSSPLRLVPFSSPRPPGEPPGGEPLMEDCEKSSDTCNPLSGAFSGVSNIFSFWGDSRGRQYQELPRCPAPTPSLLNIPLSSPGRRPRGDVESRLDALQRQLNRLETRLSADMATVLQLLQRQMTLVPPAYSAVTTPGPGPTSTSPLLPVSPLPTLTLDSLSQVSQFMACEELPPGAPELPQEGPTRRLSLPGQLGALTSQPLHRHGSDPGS
ASSAY_SUMMARY: Patch clamp experiments on the hERG ion channel (HEK293 cells overexpressing hERG)
EXPERIMENTAL_SETUP: read-out: hERG; patch clamp, peak tail current, HEK293
pIC50: −log10 of the molar value.
Below is a list of entries, each paired with its recorded pIC50 value.

- ITEM_SMILES: "N[C@@H]1c2ccccc2CC12CCN(c1ncc(C#CCOc3ccc(S(N)(=O)=O)cc3)nc1CO)CC2"
  pIC50: "< 4.70"
- ITEM_SMILES: "CP(C)(=O)c1ccc(OCC#Cc2cnc(N3CCC4(CC3)Cc3ccccc3[C@H]4N)c(CO)n2)cc1"
  pIC50: "< 4.70"

Now look at this one.
Bench note: what pIC50 did CC(=O)Nc1cccc(OCC#Cc2cnc(N3CCC4(CC3)Cc3ccccc3[C@H]4N)c(C(N)=O)n2)c1 show?
< 4.70

====

ASSAY_SUMMARY: In vitro metabolic stability in liver microsomes, dog
Format: in vitro ADME
EXPERIMENTAL_SETUP: dog, microsomes, pH 7.3
METRIC: microsomal CLint at 2 µM (µL/min/mg)
Give the quantity in µL/min/mg, number only.

Example molecules with recorded microsomal CLint at 2 µM:
- MOLECULE: "CN(CC#Cc1cnc(N2CCC3(CC2)Cc2ccccc2[C@H]3N)c(CO)n1)c1ccc(C(N)=O)cc1 [Compound A55]"
  MEASURED_RESULT: 20.7
- MOLECULE: "Nc1cc(OCC#Cc2cnc(N3CCC4(CC3)Cc3ccccc3[C@H]4N)c(CO)n2)ccn1 [Compound A26]"
  MEASURED_RESULT: 1.2

Now look at this one.
Bench note: what microsomal CLint at 2 µM did NC(=O)Cn1cc(OCC#Cc2cnc(N3CCC4(CC3)Cc3ccccc3[C@H]4N)c(CO)n2)cn1 [Compound A82] show?
3.9
